// reported Ratio Ki for each item listed
# Organism: Homo sapiens
# assay: Selectivity index, ratio of Ki for human recombinant CB2 receptor to Ki for human recombinant CB1 receptor

structure_smiles: Cc1c(C(=O)NCCc2ccc(Cl)cc2)nn(-c2ccc(Cl)cc2Cl)c1-n1c(C)ccc1C
value_observed: > 131

structure_smiles: Cc1c(C(=O)NCCc2ccc(Cl)cc2Cl)nn(-c2ccc(Cl)cc2Cl)c1-n1c(C)ccc1C
value_observed: > 25.2

structure_smiles: Cc1c(C(=O)NCCc2ccc(Cl)cc2)nn(-c2ccc(F)cc2F)c1-n1cccc1
value_observed: > 49.2

structure_smiles: Cc1c(C(=O)NCc2ccc(Cl)cc2)nn(-c2ccc(Cl)cc2Cl)c1-n1c(C)ccc1C
value_observed: > 43.8

In the following, a different compound is considered.
Task: Given Cc1c(C(=O)Nc2ccc(Cl)cc2)nn(-c2ccc(F)cc2F)c1-n1c(C)ccc1C , state its recorded Ratio Ki.
Result: > 7.04

----------
# subject_of_test: Cannabinoid receptor 2 (Homo sapiens)
# assay: Displacement of [3H]CP-55940 from human recombinant CB2 receptor expressed in HEK cells
pKi: −log10 of the molar value.
// reported pKi for each item listed

Task: Given Cc1c(C(=O)NCCc2ccc(Cl)cc2Cl)nn(-c2ccc(Cl)cc2Cl)c1-n1cccc1 , state its recorded pKi.
Result: < 5.40

Task: Given Cc1c(C(=O)NCCc2ccc(Cl)cc2)nn(-c2ccc(Cl)c(Cl)c2)c1-n1c(C)ccc1C , state its recorded pKi.
Result: < 5.40

Task: Given Cc1c(C(=O)Nc2ccc(Cl)cc2)nn(-c2ccc(F)cc2F)c1-n1c(C)ccc1C , state its recorded pKi.
Result: < 5.40

----------
// reported Ki for each item listed
# subject_of_test: Cannabinoid receptor 2 (Homo sapiens)
# assay: Displacement of [3H]CP-55940 from human recombinant CB2 receptor expressed in HEK cells
Report the figure in nM without appending any unit label.

Task: Given Cc1c(C(=O)NCc2ccc(Cl)cc2)nn(-c2ccc(F)cc2F)c1-n1cccc1 , state its recorded Ki.
Result: 3400

Task: Given COc1cc(CNC(=O)c2nn(-c3ccc(Cl)cc3Cl)c(-n3cccc3)c2C)c(Br)c(OC)c1OC , state its recorded Ki.
Result: 609

----------
// reported pKi for each item listed
# subject_of_test: UniProtKB P21554
Units for pKi: none; it is -log10 of a concentration expressed in mol/L.

// known answers, use as guide
structure_smiles: Cc1c(C(=O)NC23CC4CC(CC(C4)C2)C3)nn(-c2ccc(Cl)c(Cl)c2)c1-n1c(C)ccc1C
pKi: 8.25

structure_smiles: Cc1c(C(=O)NCCc2ccc(Cl)cc2)nn(-c2ccc(F)cc2F)c1-n1cccc1
pKi: 7.10

structure_smiles: Cc1c(C(=O)NCCc2ccc(Cl)c(Cl)c2)nn(-c2ccc(Cl)cc2Cl)c1-n1c(C)ccc1C
pKi: 6.93

Task: Given Cc1c(C(=O)NC2CCCCCC2)nn(-c2ccc(F)cc2F)c1-n1c(C)ccc1C , state its recorded pKi.
Result: 7.25

Task: Given Cc1c(C(=O)NCCc2ccc(Cl)cc2Cl)nn(-c2ccc(F)cc2F)c1-n1cccc1 , state its recorded pKi.
Result: 6.42

Task: Given Cc1c(C(=O)NCCc2ccc(Cl)cc2Cl)nn(-c2ccc(Cl)cc2Cl)c1-n1c(C)ccc1C , state its recorded pKi.
Result: 6.81

Task: Given Cc1c(C(=O)NCc2ccc(Cl)cc2)nn(-c2ccc(F)cc2F)c1-n1c(C)ccc1C , state its recorded pKi.
Result: 7.25

Task: Given Cc1c(C(=O)NC2CCCC2)nn(-c2ccc(Cl)cc2Cl)c1-n1cccc1 , state its recorded pKi.
Result: 7.08

Task: Given Cc1c(C(=O)Nc2ccc(Cl)cc2)nn(-c2ccc(F)cc2F)c1-n1c(C)ccc1C , state its recorded pKi.
Result: 6.25

----------
// reported Ratio Ki for each item listed
# Species on record: Homo sapiens
# assay: Selectivity index, ratio of Ki for human recombinant CB2 receptor to Ki for human recombinant CB1 receptor
Number only, no unit.

// known answers, use as guide
structure_smiles: Cc1c(C(=O)Nc2ccc(Cl)cc2)nn(-c2ccc(Cl)c(Cl)c2)c1-n1cccc1
value_observed: 0.61
--
structure_smiles: Cc1c(C(=O)NCc2ccc(Cl)cc2)nn(-c2ccc(F)cc2F)c1-n1cccc1
value_observed: 10
--
structure_smiles: Cc1c(C(=O)NCCc2ccc(Cl)cc2Cl)nn(-c2ccc(F)cc2F)c1-n1cccc1
value_observed: 1.75

In the following, a different compound is considered.
Task: Given Cc1c(C(=O)NC2CCCCCC2)nn(-c2ccc(Cl)c(Cl)c2)c1-n1cccc1 , state its recorded Ratio Ki.
Result: 0.23

----------
# subject_of_test: Cannabinoid receptor 1 (Homo sapiens, UniProt P21554)
# Sequence (P21554 whole entry): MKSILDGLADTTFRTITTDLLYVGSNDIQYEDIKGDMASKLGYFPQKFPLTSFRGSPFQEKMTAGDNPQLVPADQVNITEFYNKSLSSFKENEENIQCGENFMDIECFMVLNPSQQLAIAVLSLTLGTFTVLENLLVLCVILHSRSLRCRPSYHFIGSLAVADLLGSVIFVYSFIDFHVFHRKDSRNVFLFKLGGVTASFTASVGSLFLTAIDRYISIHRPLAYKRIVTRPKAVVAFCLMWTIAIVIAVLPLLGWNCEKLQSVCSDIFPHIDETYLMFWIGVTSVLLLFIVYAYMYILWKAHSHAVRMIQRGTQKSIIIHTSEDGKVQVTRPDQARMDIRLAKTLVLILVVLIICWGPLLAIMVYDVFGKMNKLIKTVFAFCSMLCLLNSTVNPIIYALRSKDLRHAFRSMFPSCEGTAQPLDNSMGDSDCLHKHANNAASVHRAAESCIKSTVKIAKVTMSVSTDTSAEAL
# assay: biochemical
# Format: cell-based, HEK293
# Description: Displacement of [3H]CP-55940 from human recombinant CB1 receptor expressed in HEK cells
test_readout: pKi
Units for pKi: none; it is -log10 of a concentration expressed in mol/L.

Task: Given Cc1c(C(=O)NCCc2ccc(Cl)cc2)nn(-c2ccc(Cl)cc2Cl)c1-n1cccc1 , state its recorded pKi.
Result: 7.15

Task: Given Cc1c(C(=O)NCc2ccc(Cl)cc2)nn(-c2ccc(Cl)c(Cl)c2)c1-n1c(C)ccc1C , state its recorded pKi.
Result: 7.00

Task: Given Cc1c(C(=O)Nc2ccc(Cl)cc2)nn(-c2ccc(Cl)cc2Cl)c1-n1c(C)ccc1C , state its recorded pKi.
Result: 7.02

----------
// reported Ki for each item listed
# subject_of_test: Cannabinoid receptor 2 (Homo sapiens, UniProt P34972)
# Sequence (P34972 whole entry): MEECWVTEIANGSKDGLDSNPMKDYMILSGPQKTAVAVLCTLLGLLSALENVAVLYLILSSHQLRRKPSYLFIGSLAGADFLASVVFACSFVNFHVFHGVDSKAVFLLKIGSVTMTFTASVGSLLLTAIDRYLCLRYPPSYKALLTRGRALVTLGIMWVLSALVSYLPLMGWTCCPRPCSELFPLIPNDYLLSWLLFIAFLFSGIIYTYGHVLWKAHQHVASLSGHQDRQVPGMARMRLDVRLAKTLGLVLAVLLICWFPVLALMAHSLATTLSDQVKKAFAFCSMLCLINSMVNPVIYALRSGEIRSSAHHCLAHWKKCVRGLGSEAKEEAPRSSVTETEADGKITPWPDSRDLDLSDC
# assay: Displacement of [3H]CP-55940 from human recombinant CB2 receptor expressed in HEK cells

structure_smiles: Cc1c(C(=O)NCc2ccc(Cl)cc2)nn(-c2ccc(F)cc2F)c1-n1c(C)ccc1C
test_readout: Ki
value_observed: > 3.94 µM

structure_smiles: Cc1c(C(=O)NCCc2ccc(Cl)c(Cl)c2)nn(-c2ccc(Cl)cc2Cl)c1-n1c(C)ccc1C
test_readout: Ki
value_observed: > 3.94 µM

structure_smiles: Cc1c(C(=O)NCCc2ccc(Cl)cc2)nn(-c2ccc(Cl)cc2Cl)c1-n1c(C)ccc1C
test_readout: Ki
value_observed: > 3.94 µM

In the following, a different compound is considered.
Task: Given Cc1c(C(=O)NCCc2ccc(Cl)c(Cl)c2)nn(-c2ccc(Cl)cc2Cl)c1-n1cccc1 , state its recorded Ki.
Result: > 3.94 µM

----------
// reported Ratio Ki for each item listed
# Species on record: Homo sapiens
# assay: Selectivity index, ratio of Ki for human recombinant CB2 receptor to Ki for human recombinant CB1 receptor

// known answers, use as guide
structure_smiles: COc1ccc(CCNC(=O)c2nn(-c3ccc(F)cc3F)c(-n3cccc3)c2C)cc1Cl
Ratio Ki: 2.05

structure_smiles: Cc1c(C(=O)NC2CCCCCC2)nn(-c2ccc(F)cc2F)c1-n1c(C)ccc1C
Ratio Ki: 1.96

Task: Given Cc1c(C(=O)NC2CCCC2)nn(-c2ccc(Cl)cc2Cl)c1-n1cccc1 , state its recorded Ratio Ki.
Result: 2.02

----------
# subject_of_test: UniProt:P34972
# assay: Displacement of [3H]CP-55940 from human recombinant CB2 receptor expressed in HEK cells
Rule: Ki below 0.01 µM gives class 1. Equal to or above 0.01 µM gives class 0.

Sample answers from the record:
structure_smiles: Cc1c(C(=O)Nc2ccc(Cl)cc2)nn(-c2ccc(Cl)c(Cl)c2)c1-n1c(C)ccc1C
answer_label: class 0
//
structure_smiles: Cc1c(C(=O)NCCc2ccc(Cl)cc2)nn(-c2ccc(F)cc2F)c1-n1cccc1
answer_label: class 0
//
structure_smiles: Cc1c(C(=O)NCc2ccc(Cl)cc2)nn(-c2ccc(Cl)cc2Cl)c1-n1c(C)ccc1C
answer_label: class 0
//
structure_smiles: Cc1c(C(=O)NCCc2ccc(Cl)c(Cl)c2)nn(-c2ccc(F)cc2F)c1-n1cccc1
answer_label: class 0
//
structure_smiles: Cc1c(C(=O)Nc2ccc(Cl)cc2)nn(-c2ccc(Cl)cc2Cl)c1-n1c(C)ccc1C
answer_label: class 0
//
structure_smiles: Cc1c(C(=O)Nc2ccc(Cl)cc2)nn(-c2ccc(F)cc2F)c1-n1cccc1
answer_label: class 0
//
structure_smiles: Cc1c(C(=O)N[C@@H](C)C2CCCCC2)nn(-c2ccc(Cl)c(Cl)c2)c1-n1cccc1
answer_label: class 1
//
structure_smiles: COc1cc(CNC(=O)c2nn(-c3ccc(Cl)cc3Cl)c(-n3c(C)ccc3C)c2C)c(Br)c(OC)c1OC
answer_label: class 0

Task: # TODO verify Ki < 0.01 µM strictly for this compound: Cc1c(C(=O)NCCc2ccc(Cl)cc2Cl)nn(-c2ccc(F)cc2F)c1-n1c(C)ccc1C
Result: class 0

Task: # TODO verify Ki < 0.01 µM strictly for this compound: Cc1c(C(=O)NC2CCCC2)nn(-c2ccc(Cl)c(Cl)c2)c1-n1c(C)ccc1C
Result: class 0

Task: # TODO verify Ki < 0.01 µM strictly for this compound: Cc1c(C(=O)NCc2ccc(Cl)cc2)nn(-c2ccc(Cl)c(Cl)c2)c1-n1cccc1
Result: class 0

Task: # TODO verify Ki < 0.01 µM strictly for this compound: Cc1c(C(=O)NCCc2ccc(Cl)cc2Cl)nn(-c2ccc(Cl)cc2Cl)c1-n1c(C)ccc1C
Result: class 0

Task: # TODO verify Ki < 0.01 µM strictly for this compound: Cc1c(C(=O)NC2CCCCCC2)nn(-c2ccc(Cl)c(Cl)c2)c1-n1cccc1
Result: class 1
